- measurement-target: F508delCFTR (Homo sapiens, UniProt P13569, DEL508-508)
- Construct: expressed in transfected cells; host or cells: CFBE41o- human lung-derived epithelial cells (CFBE4lo-F508delCFTR-HRP), doxycycline-inducible
- Sequence (P13569 with tags, fused parts or gaps DEL508-508): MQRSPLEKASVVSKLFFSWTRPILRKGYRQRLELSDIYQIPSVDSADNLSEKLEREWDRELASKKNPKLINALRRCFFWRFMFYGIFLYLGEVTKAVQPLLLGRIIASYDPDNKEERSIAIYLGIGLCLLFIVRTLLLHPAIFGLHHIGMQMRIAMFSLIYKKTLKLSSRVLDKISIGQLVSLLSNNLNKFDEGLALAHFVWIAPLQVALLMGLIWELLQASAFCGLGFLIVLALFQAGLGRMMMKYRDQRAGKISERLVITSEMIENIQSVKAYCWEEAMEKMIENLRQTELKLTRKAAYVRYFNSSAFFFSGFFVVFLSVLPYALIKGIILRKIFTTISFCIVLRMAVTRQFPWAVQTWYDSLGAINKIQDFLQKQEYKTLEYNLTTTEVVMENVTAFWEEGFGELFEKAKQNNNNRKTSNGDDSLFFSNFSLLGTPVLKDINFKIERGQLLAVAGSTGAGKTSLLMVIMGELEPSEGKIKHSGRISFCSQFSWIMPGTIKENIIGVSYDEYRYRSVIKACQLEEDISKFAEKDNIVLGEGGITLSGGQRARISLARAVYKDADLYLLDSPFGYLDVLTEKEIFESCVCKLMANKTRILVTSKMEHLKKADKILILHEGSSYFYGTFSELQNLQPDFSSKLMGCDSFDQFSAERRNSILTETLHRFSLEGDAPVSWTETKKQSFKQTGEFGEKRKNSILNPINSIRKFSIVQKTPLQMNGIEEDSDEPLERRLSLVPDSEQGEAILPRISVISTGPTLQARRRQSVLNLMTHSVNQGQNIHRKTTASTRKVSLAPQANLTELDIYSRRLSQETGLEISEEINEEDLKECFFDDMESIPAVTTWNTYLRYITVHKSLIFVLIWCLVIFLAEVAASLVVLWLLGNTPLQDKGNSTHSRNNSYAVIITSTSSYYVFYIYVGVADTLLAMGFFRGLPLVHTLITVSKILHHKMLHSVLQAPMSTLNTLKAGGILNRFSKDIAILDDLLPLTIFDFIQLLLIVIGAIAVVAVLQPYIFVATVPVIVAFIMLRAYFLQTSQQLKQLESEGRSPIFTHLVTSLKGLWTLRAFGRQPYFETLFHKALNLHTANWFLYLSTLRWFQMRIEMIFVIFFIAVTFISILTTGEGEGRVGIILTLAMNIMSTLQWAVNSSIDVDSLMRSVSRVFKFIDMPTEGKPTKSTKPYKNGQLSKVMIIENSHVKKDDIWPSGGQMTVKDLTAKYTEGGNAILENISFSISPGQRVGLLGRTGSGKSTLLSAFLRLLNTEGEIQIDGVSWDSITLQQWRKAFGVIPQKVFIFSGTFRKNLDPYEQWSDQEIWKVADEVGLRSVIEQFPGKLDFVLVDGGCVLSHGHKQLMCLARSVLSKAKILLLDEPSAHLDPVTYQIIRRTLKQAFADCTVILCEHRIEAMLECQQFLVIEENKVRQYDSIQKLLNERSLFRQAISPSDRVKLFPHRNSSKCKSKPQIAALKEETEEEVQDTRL
- protocol-description: Cell Surface Expression-Horse Radish Peroxidase (CSE-HRP) Assay;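 also: co-corrector and positive control are both the same reference corrector at 2 µM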
- Format: cell-based
- measurement-context: with co-corrector (2 μM); maximum at any tested concentration, normalized to on-plate positive control
measurement-kind: Maximum % activity (with co-corrector)

Some solved cases for reference:
{"columns": ["compound", "Maximum % activity (with co-corrector)"],
 "data": [
  ["COc1ccc(C(C)(C)C)cc1CN[C@H]1[C@H](C(C)(C)C)[C@@H](C(=O)O)N(C(=O)[C@@H]2CCCCO2)[C@H]1c1ccccc1Br [Example 113]", "+++ (≥350)"],
  ["COc1ccc(C(C)(C)C)cc1CN[C@H]1[C@H](C(C)(C)OC)[C@@H](C(=O)O)N(C(=O)C2CCCCC2)[C@H]1c1cccnc1OC [Example 40]", "+++ (≥350)"],
  ["COc1nc(C(C)(C)C)ccc1CN[C@H]1[C@H](C(C)(C)C)[C@@H](C(=O)O)N(C(=O)OC(C)C)[C@H]1c1ccccc1 [Example I-194]", "+++ (≥350)"],
  ["COc1ccc(C(C)(C)C)cc1CN[C@H]1[C@H](C(C)(C)C)[C@@H](C(=O)O)N(C(=O)[C@H]2OCC[C@H]2c2ccccc2)[C@H]1c1ccccc1 (relative stereo) [Example I-179]", "+++ (≥350)"],
  ["COc1ccc(C(C)(C)C)cc1CN[C@H]1[C@H](C(C)(C)C)[C@@H](C(=O)O)N(C(=O)Cc2ccsc2)[C@H]1c1ccccc1 [Example I-92]", "+++ (≥350)"],
  ["COc1ccc(C(C)(C)C)cc1CN[C@H]1[C@H](C(C)(C)C)[C@@H](C(=O)O)N(C(=O)C2CCC2)[C@H]1c1cccnc1N1CCC1 [Example 102]", "+++ (≥350)"]
]}

Please look up its Maximum % activity (with co-corrector): COc1ccc(C(C)(C)C)cc1CN[C@H]1[C@H](C(C)(C)C)[C@@H](C(=O)O)N(C(=O)C2CCCCC2C(=O)N2CCC2)[C@H]1c1ccccc1 (stereo partly drawn) [Example I-149] +++ (≥350)
